- Tested on: Vero E6 infected with SARS-CoV-2
- test description: SARS-CoV-2 infection rate relative to infected DMSO; higher = more infection, active = 60 or less
- experimental context: 24 h
Hello, when you answer, please use one of the following outcomes: active, inactive

# count of solved cases: 10
compound | label class
COc1ccc(C2CNC(=O)C2)cc1OC1CCCC1 (centres undefined) [rolipram] (10 µM) | inactive
O=C(COc1ccc(Cl)cc1)N[C@H]1CC[C@H](NC(=O)COc2ccc(Cl)cc2)CC1 (10 µM) | inactive
Cc1cc(Nc2cc(N3CCN(C)CC3)nc(Sc3ccc(NC(=O)C4CC4)cc3)n2)n[nH]1 [tozasertib] (10 µM) | inactive
CCN1CCN(C(=O)N[C@@H](C(=O)N[C@@H]2C(=O)N3[C@@H]2SC(C)(C)[C@@H]3C(=O)O)c2ccccc2)C(=O)C1=O [piperacillin] (10 µM) | inactive
CSc1ccc(C(=O)N[C@@H]2CCCC[C@@H]2NC(=O)CNC(=O)c2cc(C(F)(F)F)ccc2NC(=O)NC(C)C)cc1 (10 µM) | inactive
Cc1nccn1CCC(C(N)=O)(c1ccccc1)c1ccccc1 [imidafenacin] (10 µM) | inactive
CC(=O)Nc1cccc2c1c(Sc1ccc(Cl)cc1)c(C)n2CC(=O)O (10 µM) | inactive
Clc1cccc(/C=N/N=C/c2cccc(Cl)c2)c1 [3,3'-dichlorobenzaldazine] (10 µM) | inactive
CC(=O)Oc1cc(C(F)(F)F)ccc1C(=O)O [triflusal] (10 µM) | inactive
CCOCc1cc(OC)c(-c2ccc(C[C@H](NC(=O)c3c(F)cccc3F)C(=O)O)cc2)c(OC)c1 [firategrast] (10 µM) | inactive

Query block: Per the assay record, what outcome was assigned to O=S(=O)(c1ccccc1)c1cnc2c(N3CCNCC3)cccc2c1 (10 µM) ?
Result block: inactive

Query block: Per the assay record, what outcome was assigned to C[C@@H]1CN(Cc2ccc(F)cc2)CCN1C(=O)COc1ccc(Cl)cc1NC(N)=O (10 µM) ?
Result block: inactive

Query block: Per the assay record, what outcome was assigned to N#Cc1cccc(C(=O)Nc2cc(-c3ccccc3)nn2-c2ccccc2)c1 (10 µM) ?
Result block: inactive

Query block: Per the assay record, what outcome was assigned to CCC(CC)Nc1cc(C)nc(Oc2c(C)cc(C)cc2C)c1C (10 µM) ?
Result block: inactive

Query block: Per the assay record, what outcome was assigned to COc1ccc(-c2cc(=O)c3c(O)cc(O)cc3o2)cc1O [diosmetin] (10 µM) ?
Result block: inactive
